- test.system: Cytochrome P450 2C19 (Homo sapiens)
- test.protocol: Cytochrome panel assay with activity outcomes
- experimental.parameters: recombinant CYP, pro-luciferin dealkylation, luminescence, p450-cyp2c19; series mostly up to 57.1 µM
Among all 16,000 compounds or so, about 5,800 (36%) were called active. About 23% were inconclusive and are not listed. Calls come from the whole dose curve; as a rule, active = well fitted curve in the direction sought with a large enough effect; inconclusive = small, poorly fitted or top-dose-only effect, or effect the other way; inactive = no such curve, though single readings can be large or run the other way. This is one part of the list.
Labels: active, inactive

1) COc1cc(CC(=O)O)c(C(C)=O)cc1OC : inactive
2) COc1cccc(CNCc2ccc(SC)cc2)c1OC : active
3) COc1cccc(-c2nc(NC3CCNCC3)c3ccccc3n2)c1 : inactive
4) COc1ccccc1CNCCCCCCNCCCCCCCCNCCCCCCNCc1ccccc1OC : inactive
5) COc1ccc(S(=O)(=O)N2CCN(CC(=O)Nc3cccc(F)c3)CC2)cc1 : active
6) CCNc1ncc2nc(-c3cc(F)cc(F)c3)c(=O)n(Cc3cccs3)c2n1 : inactive
7) Cn1c(CNS(=O)(=O)c2ccc(Cl)cc2)n[nH]c1=S : inactive
8) COc1cc(/C=C(/NC(=O)c2ccccc2Cl)C(=O)O)cc(OC)c1OC : inactive
9) CCNc1ncc2nc(-c3cn(C)c4ccccc34)c(=O)n(CCC#N)c2n1 : inactive
10) CCNc1ncc2nc(-c3ccc(F)cc3)c(=O)n(CCOC)c2n1 : inactive
11) CCOc1ccccc1Nc1nc(-c2sc(NC(=O)c3ccccc3)nc2C)cs1 : active
12) COc1cc(CNCc2cccs2)cc(Br)c1OC : active
13) COC(=O)N1CCC2(CCCN(C(=O)Nc3cccc(F)c3)C2)CC1 : inactive
14) O=C(NC1CCCCC1)C(Cc1ccccc1)N1C(=O)C2C3CCC(C3)C2C1=O (stereo unspecified) : active
15) N#CCCn1c(=O)c(CCc2ccccc2)nc2cnc(Nc3ccccc3)nc21 : inactive
16) COC(=O)CSC1=C(C#N)C(c2cccc(F)c2)CC(=O)N1 (stereo unspecified) : active
17) Cc1noc2ncnc(Oc3ccc4ccccc4c3)c12 : active
18) CCOC(=O)CSC1=C(C#N)C(c2sccc2C)C(C(C)=O)=C(C)N1 (stereo unspecified) : active
19) Clc1ccc(SCc2cc(-c3ccccc3)no2)cc1 : active
20) O=C(Nc1ccc2c(c1)OCCO2)C1CCN(C(=O)c2ccccc2)CC1 : active
21) COc1ccc(-c2cc(CNC(C)=O)on2)cc1 : inactive
22) CCOC(=O)Cc1c(C)nc2c(C#N)c[nH]n2c1=O : inactive
23) Cc1ccccc1OCCNC(=O)c1ccccc1Sc1ccccc1C#N : active
24) CCNc1ncc2nc(CCc3ccccc3)c(=O)n(CCC#N)c2n1 : active
25) CC(=O)Nc1ccc(NCN2C(=O)C3C4CCC(C4)C3C2=O)cc1 (stereo unspecified) : inactive
26) O=C(NCCCN1CCCCCC1)[C@@H](c1ccccc1)C1CCCCC1 : inactive
27) COc1ccccc1CNCc1cccs1 : active
28) O=S(=O)(NCc1cc(-c2ccccc2)no1)c1ccc(Cl)cc1 : active
29) COc1ccccc1C(=O)N/C(=C/c1ccc(Br)cc1)C(=O)NCC(=O)O : active
30) CCC(C#CCN1CCCCC1)(CC)OCCC#N : active
31) CCNc1ncc2nc(CCc3ccccc3)c(=O)n(CCOC)c2n1 : active
32) COC(=O)N1CCC2(CCN(C(=O)Nc3ccc(OC)cc3)CC2)CC1 : inactive
33) N=C(N)SCCN : inactive
34) CCOc1ccc(C(=O)CN2CCN(S(=O)(=O)c3ccc(F)cc3)CC2)cc1 : active
35) O=S(=O)(NCc1cc(-c2ccc(Cl)cc2)no1)c1ccc(Cl)cc1 : active
36) CC(=O)c1cc(CC=C(C)C)c(O)cc1O : active
37) COc1cccc(-c2nc(NCc3ccccc3OC)c3ccccc3n2)c1 : active
38) CCC(C)NC(=O)C1CCN(C(=O)c2ccccc2)CC1 (stereo unspecified) : inactive
39) Cc1cnc(CNc2nc(-c3cccnc3)nc3ccccc23)cn1 : inactive
40) COc1ccccc1N1CCN(CCN(C(=O)C2CCCCC2)c2ccccn2)CC1 : inactive
41) CCOC(=O)C1=C(C)NC(C)=C(C(=O)OCC)C1c1sccc1C : active

---

- test.system: Cytochrome P450 2C19 (Homo sapiens) (UniProt P33261)
- Sequence (P33261 whole entry, looked up): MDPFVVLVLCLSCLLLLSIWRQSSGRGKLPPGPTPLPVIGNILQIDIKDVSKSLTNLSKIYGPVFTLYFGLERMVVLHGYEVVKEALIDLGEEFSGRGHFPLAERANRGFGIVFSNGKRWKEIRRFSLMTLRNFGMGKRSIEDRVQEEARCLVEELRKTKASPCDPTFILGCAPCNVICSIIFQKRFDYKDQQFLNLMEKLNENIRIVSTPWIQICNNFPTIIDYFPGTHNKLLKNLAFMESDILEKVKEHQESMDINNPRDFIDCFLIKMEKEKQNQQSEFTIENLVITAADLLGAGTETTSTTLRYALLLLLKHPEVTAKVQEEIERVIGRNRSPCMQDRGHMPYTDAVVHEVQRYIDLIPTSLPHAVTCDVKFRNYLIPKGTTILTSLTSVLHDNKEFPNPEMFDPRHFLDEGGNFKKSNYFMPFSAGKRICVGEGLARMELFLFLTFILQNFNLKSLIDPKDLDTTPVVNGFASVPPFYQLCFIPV
- test.protocol: Cytochrome panel assay with activity outcomes
- experimental.parameters: recombinant CYP, pro-luciferin dealkylation, luminescence, p450-cyp2c19; series mostly up to 57.1 µM
- Method: The P450 gene superfamily is involved in the metabolism and clearance of xenobiotics. This assay used various human CYP P450 isozymes to measure the dealkylation of various pro-luciferin substrates to luciferin. The luciferin is then measured by luminescence after the addition of a luciferase detection reagent. […] Inhibitors and some substrates limit the production of luciferin, and decrease measured luminescence. […] 8, Detection, 1 sec, ViewLux luminescent read […]
Out of some 16,000 compounds screened, about 5,800 (36%) were called active. Inconclusive results (about 23%) are left out. Calls follow the shape of the dose curve; as a rule, active = well fitted curve in the direction sought with a large enough effect; inconclusive = small, poorly fitted or top-dose-only effect, or effect the other way; inactive = no such curve, though single readings can be large or run the other way. Some of the results follow.
Labels: TRUE = active, FALSE = inactive

1) CCOc1ccc(NC(=O)c2ccc(Br)o2)c([N+](=O)[O-])c1 : FALSE
2) COc1ccc(CNc2ncnc3ccc(-c4ccccc4OC)cc23)c(OC)c1 : TRUE
3) O=C(NCc1ccc(Cl)cc1)c1ccc(Cl)cc1[N+](=O)[O-] : TRUE
4) CCCCC1CCC(c2nc(-c3ccccn3)no2)CC1 (stereo unspecified) : TRUE
5) O=C(CSc1nnc2c(n1)[nH]c1ccc(F)cc12)OCc1ccccc1 : TRUE
6) COc1ccc(CNc2ncnc3ccc(-c4ccccc4CN(C)C)cc23)c(OC)c1 : TRUE
7) COc1cc(C(=O)NCCC(C)C)c([N+](=O)[O-])cc1OC : FALSE
8) COc1ccc(-n2c(=O)c(-c3ccc(F)cc3)nc3cnc(N4CCOCC4)nc32)cc1 : FALSE
9) CCOc1ccc(NC(=S)N(Cc2ccc(Cl)cc2)Cc2ccco2)cc1 : TRUE
10) COc1ccccc1CNc1nc(-c2ccc3c(c2)OCO3)nc2ccccc12 : TRUE
11) CC(=O)N1CCC2(CCCN(c3ncccn3)C2)CC1 : FALSE
12) CCOC(=O)CC(=O)CSc1nnc2c(n1)[nH]c1ccccc12 : TRUE
13) O=C(c1cccc(F)c1)N1CCC2(CCCN(c3ncccn3)C2)CC1 : TRUE
14) O=c1c(-c2ccc(F)c(F)c2)nc2cncnc2n1Cc1ccccc1Cl : TRUE
15) O=C(c1cccc(F)c1)N1CCC2(CC1)CCN(c1cccc(-c3ccccc3)c1)CC2 : FALSE
16) CCOCc1cnc(C)nc1NCC(=O)c1c(C)[nH]c2ccccc12 : FALSE

---

- test.system: Cytochrome P450 2C19 (Homo sapiens)
- test.protocol: Cytochrome panel assay with activity outcomes
- experimental.parameters: recombinant CYP, pro-luciferin dealkylation, luminescence, p450-cyp2c19; series mostly up to 57.1 µM
Hit rate of the full screen: of about 16,000 compounds, about 5,800 (36%) were called active. Inconclusive results (about 23%) are left out. Calls come from the whole dose curve; as a rule, active = well fitted curve in the direction sought with a large enough effect; inconclusive = small, poorly fitted or top-dose-only effect, or effect the other way; inactive = no such curve, though single readings can be large or run the other way. This is one part of the list.
Labels: YES = active, NO = inactive

1) O=C(c1ccncc1)N1CCC[C@@]2(CCN(c3ccccc3)C2)C1 : NO
2) COc1ccccc1NC(=O)c1cnc2n(c1=O)CCS2 : NO
3) CC(C)(C)C(=O)OCOC(=O)[C@@H]1N2C(=O)[C@@H](NC(=O)[C@H](N)c3ccccc3)[C@H]2SC1(C)C : NO
4) CCN(c1ccc(NC(=O)COC(=O)c2ccc3ccccc3n2)cc1)C(C)C : YES
5) O=C(CC(c1ccccc1)c1ccccc1)Nc1ccc2c(c1)OCCO2 : YES
6) CN(C)c1ccc(-c2cncnc2Nc2ccccc2)cc1 : YES
7) COc1ccccc1NC(=O)CN1CCN(CC(=O)Nc2ccc(OCc3ccccc3)cc2)CC1 : YES
8) Cc1nc2cncnc2n(Cc2ccccc2)c1=O : YES
9) CCN(Cc1cc(Cl)cc(C)c1O)Cc1c(O)ccc2ccccc12 : YES
10) CC(=O)c1c(C)nc(-c2ccccc2)n1O : NO
11) Cn1cc(-c2nc3cncnc3n(Cc3ccc(F)cc3)c2=O)c2ccccc21 : NO
12) Nc1c2c(nc3ccccc13)CCCC2 : NO
13) O=c1c(-c2cccs2)nc2cncnc2n1Cc1ccccc1 : YES
14) O=C(Nc1ccccc1C(=O)Nc1ccc2c(c1)OCO2)c1ccco1 : YES
15) O=C(c1cc(-c2cccs2)on1)N1CCN(c2ccc(F)cc2)CC1 : YES
16) NC(=O)c1cc[n+](CC2=C(C(=O)O)N3C(=O)[C@@H](NC(=O)[C@H](c4ccccc4)S(=O)(=O)[O-])[C@@H]3SC2)cc1 : NO
17) O=C(CN1C(=O)c2ccccc2S1(=O)=O)Nc1ccccc1 : NO
18) O=c1c(-c2ccc(F)cc2)nc2cncnc2n1C1CC1 : NO
19) COc1ccc(Nc2ncc3nc(-c4cccs4)c(=O)n(Cc4cccc(OC)c4)c3n2)cc1 : NO
20) COc1cc(CNn2nnnc2N)ccc1OCc1c(Cl)cccc1Cl : YES
21) CCCC[C@H]1C[C@@H]1[C@@H]1N(P(=O)(c2ccccc2)c2ccccc2)C[C@@](O)(c2ccccc2)CC12CC2 : NO
22) O=C(CN1C(=O)C2C3C=CC(C3)C2C1=O)Nc1ccc2c(c1)OCCO2 (stereo unspecified) : NO
23) O=C(c1cccc(F)c1)N1CCC2(CC1)CCN(c1ccncc1)CC2 : NO
24) COc1cccc(Cn2c(=O)c(-c3cccs3)nc3cnc(OCc4ccccc4)nc32)c1 : NO
25) O=C(CCNC(=O)Cn1ccc2ccccc2c1=O)NCCCN1CCN(c2ccc(F)cc2)CC1 : NO
26) CC(=O)Nc1ccc2c(c1)OCCOCCOc1cc(NC(C)=O)ccc1OCCOCCOCCO2 : NO
27) COC(=O)c1[nH]c2cc(OC)ccc2c1NC(=O)CCN1CCSCC1 : NO
28) O=c1c(-c2cc(F)cc(F)c2)nc2cncnc2n1C1CC1 : NO
29) O=C(Nc1ncc(Cc2cc(Cl)ccc2Cl)s1)c1ccc([N+](=O)[O-])cc1 : YES
30) O=C(c1cnccn1)N1CCC2(CC1)CN(c1ccncc1)C2 : NO
31) COc1cccc(Cn2c(=O)c(-c3cccs3)nc3cncnc32)c1 : YES
32) COc1ccc(C(=O)N2CCC3(CC2)CCN(c2ncccn2)CC3)cc1 : NO
33) CC[C@H](C)[C@@H]1O[C@]2(CC[C@@H]1C)C[C@H]1C[C@H](CC=C(C)[C@@H](O[C@H]3C[C@H](OC)[C@H](O[C@H]4C[C@H](OC)[C@H](O)[C@H](C)O4)[C@H](C)O3)[C@@H](C)C=CC=C3CO[C@@H]4[C@@H](O)C(C)=C[C@H](C(=O)O1)[C@@]34O)O2 : NO
34) C=Cc1c(C)c2cc3nc(cc4[nH]c(cc5nc(cc1[nH]2)C(C)=C5CCC(=O)O)c(CCC(=O)OC)c4C)[C@@]1(C)C3=CC=C(C(=O)OC)[C@H]1C(=O)OC (tested in a mixture with another compound) : YES
35) O=C(c1ccncc1)N1CCC2(CC1)CN(c1ccccc1)C2 : YES
36) O=C(c1cccc(F)c1)N1CCC2(CC1)CN(c1ccncc1)C2 : YES
